Entry source: the Immune Epitope Database (IEDB)

Recorded IC50 by entry
# Tested target: HLA-A*68:02
# Protocol details: IEDB peptide-MHC binding, cellular MHC/competitive/fluorescence; bounds were set here for any values at or beyond the usual limits of such assays
# Condition notes: source organism: Vaccinia virus WR
Express it in µM; write the number only.

input_sequence=EILSNTTKTL measurement_kind=IC50 value_reported=15.1

Input EIDVSEVKT . Output IC50: 20

Input LALTDVEKRI . Output IC50: 14.9

Input DIRDKYMEL . Output IC50: 14.7

Input NINFNNSSII . Output IC50: 6.97

Input ITDDSDDYEL . Output IC50: 11.9

Input IMRNFLRSIA . Output IC50: 54.2

Input VMDTLNGIMM . Output IC50: 6.92

Input AMHDKKIDI . Output IC50: 8

Input YIRRNMINKL . Output IC50: 13.7

====

# Tested target: HLA-A*02:02
# Protocol details: IEDB peptide-MHC binding, purified MHC/competitive/radioactivity; bounds were set here for any values at or beyond the usual limits of such assays
# Condition notes: source organism: Vaccinia virus WR
Recorded IC50 by entry
Just so you know, I need the unit written after the number.

input_sequence=QIYLSDSDNI measurement_kind=IC50 value_reported="1240 nM"
input_sequence=HLMSDNPKA measurement_kind=IC50 value_reported="57 nM"
input_sequence=FLFWFLKSGA measurement_kind=IC50 value_reported="1.1 nM"
input_sequence=VADLSARNKL measurement_kind=IC50 value_reported="1170 nM"

Input ETDDDGNYPL . Output IC50: 3590 nM

Input GLYIPGTSVI . Output IC50: 92 nM

Input MIYDLNAVTT . Output IC50: 897 nM

Input NITTLLNETA . Output IC50: 218 nM

====

# Tested target: HLA-A*02:03
# Protocol details: IEDB peptide-MHC binding, cellular MHC/competitive/fluorescence; bounds were set here for any values at or beyond the usual limits of such assays
# Condition notes: source organism: Mammarenavirus brazilense
Strictly below 8 µM in IC50: yes (1). Otherwise: no (0).

input_sequence=KNATWCLEV tested_target=HLA-A*02:03 class_assignment="yes (1)"
input_sequence=RSASGGVYL tested_target=HLA-A*02:03 class_assignment="no (0)"
input_sequence=LNISGYNYSL tested_target=HLA-A*02:03 class_assignment="no (0)"
input_sequence=ICFWSTLFFT tested_target=HLA-A*02:03 class_assignment="no (0)"
input_sequence=SNPNLFWAV tested_target=HLA-A*02:03 class_assignment="yes (1)"

Consider the additional sequence presented here.
q: Does the reported IC50 of the following sequence sit strictly below 8 µM? MSPALFFTFL
a: yes (1)

====

# Tested target: HLA-A*02:01
# Protocol details: IEDB peptide-MHC binding, purified MHC/competitive/radioactivity; bounds were set here for any values at or beyond the usual limits of such assays
# Condition notes: source organism: Vaccinia virus WR
Recorded log10 of IC50 by entry
Note: values are log10 of IC50 expressed in nM.

Recorded results for 3 sequences are shown here.
input_sequence=LLENKSLTIL value_reported=3.06
input_sequence=YLIKLIEPV value_reported=0.90
input_sequence=RMPTDMLKL value_reported=3.26

Input KTISVVTLL . Output log10 of IC50: 2.46

Input IVLFILKIFV . Output log10 of IC50: 2.43

Input ALQNVMISI . Output log10 of IC50: 2.64
